# setup conditions: in ethanol, 313.15 K

sample smiles	solubility (mole fraction)
Cc1[nH]nc2cc([N+](=O)[O-])ccc12	0.0137

----------
# setup conditions: in water, 278.15 K

sample smiles	solubility (mole fraction)
Cc1[nH]nc2cc([N+](=O)[O-])ccc12	2.06e-05

----------
# setup conditions: in ethanol, 323.15 K
observable: solubility (mole fraction)

sample smiles	observed value
Cc1[nH]nc2cc([N+](=O)[O-])ccc12	0.019

----------
# setup conditions: in n-propanol, 278.15 K

sample smiles	solubility (mole fraction)
Cc1[nH]nc2cc([N+](=O)[O-])ccc12	0.0051

----------
# setup conditions: in n-propanol, 328.15 K

sample smiles	solubility (mole fraction)
Cc1[nH]nc2cc([N+](=O)[O-])ccc12	0.0194

----------
# setup conditions: in ethanol, 283.15 K
observable: solubility (mole fraction)

sample smiles	observed value
Cc1[nH]nc2cc([N+](=O)[O-])ccc12	0.00539

----------
# setup conditions: in ethanol, 303.15 K
observable: solubility (mole fraction)

sample smiles	observed value
Cc1[nH]nc2cc([N+](=O)[O-])ccc12	0.0102
